Value source: patent US8889878B2

Recorded chromatographic logP by entry
assay: logP by HPLC on reverse-phase column (EEC Directive 79/831 Annex V.A8); type: physicochemical; conditions: reverse-phase C18 HPLC column, pH 2.7, HPLC, C18 reverse phase, 43° C., acidic range pH 2.7, calibration with alkan-2-ones
Respond with the number and no other words.

Example compounds with recorded chromatographic logP:
>>> number("CN(C(=O)/C=C/c1ccc(C#N)cc1)C(c1cccc(C(F)(F)F)c1)C(F)(F)F (stereo not shown)")
4.01
>>> number("O=C(/C=C\\c1ccc(C(=O)NC2CC2)c(Cl)c1)NC(c1cccc(C(F)(F)F)c1)C(F)(F)F (stereo not shown)")
3.06
>>> number("O=C(/C=C/c1ccc(-c2noc(C3CC3)n2)c(C(F)(F)F)c1)NC(c1cccc(C(F)(F)F)c1)C(F)(F)F (stereo not shown)")
4.53

Now take the following compound into account.
// returns reported chromatographic logP for input CC(C)(C)OC(=O)NCc1ccc(/C=C/C(=O)O)cc1C(F)(F)F
2.67

====

system: Musca domestica adults; experiment: Musca domestica test (MUSCDO), Example 14; type: in vivo; details: application rate 100 ppm, treated sponge, after 2 days
measured-parameter: kill rate in % (efficacy) (%)
Write the value in % as a bare number.

Use the examples below as a reference point.
>>> number("O=C(/C=C/c1ccc(C(=O)NCC(F)(F)F)c(Cl)c1)NC(c1cccc(C(F)(F)F)c1)C(F)(F)F (stereo not drawn) [Ia-19]")
100
>>> number("O=C(/C=C/c1ccc(C(=O)NCC(F)F)c(C(F)(F)F)c1)NC(c1cccc(C(F)(F)F)c1)C(F)(F)F (stereo not drawn) [Ia-57]")
100
>>> number("O=C(/C=C/c1ccc(C(=O)NC2CC2)c(C(F)(F)F)c1)NC(c1cccc(C(F)(F)F)c1)C(F)(F)F (stereo not drawn) [Ia-23]")
100
>>> number("O=C(/C=C/c1ccc(C(=O)NC2CC2)c(C(F)(F)F)c1)NC(c1cc(Cl)cc(C(F)(F)F)c1)C(F)(F)F (stereo not drawn) [Ia-40]")
85
>>> number("C#CC(C)NC(=O)c1ccc(/C=C/C(=O)NC(c2cccc(C(F)(F)F)c2)C(F)(F)F)cc1Cl (stereo not drawn) [Ia-161]")
80
>>> number("CC(NC(=O)c1ccc(/C=C/C(=O)NC(c2cccc(C(F)(F)F)c2)C(F)(F)F)cc1Cl)C(F)(F)F (stereo not drawn) [Ia-158]")
100
>>> number("CC(C#N)NC(=O)c1ccc(/C=C/C(=O)NC(c2cccc(C(F)(F)F)c2)C(F)(F)F)cc1C(F)(F)F (stereo not drawn) [Ia-141]")
100
>>> number("Cn1c(C(=O)NC(c2cccc(C(F)(F)F)c2)C(F)(F)F)cc2cc(C(=O)NC3CC3)c(Cl)cc21 (racemic) [Ic-25]")
100
>>> number("O=C(/C=C/c1ccc(C(=O)Nc2ccc(Cl)cn2)c(C(F)(F)F)c1)NC(c1cccc(C(F)(F)F)c1)C(F)(F)F (stereo not drawn) [Ia-122]")
90
>>> number("CC(C)ONC(=O)c1ccc(/C=C/C(=O)NC(c2cccc(C(F)(F)F)c2)C(F)(F)F)cc1C(F)(F)F (stereo not drawn) [Ia-149]")
100

Look up kill rate in % (efficacy) for this compound: C#CCNC(=O)c1ccc(/C=C/C(=O)NC(c2cccc(C(F)(F)F)c2)C(F)(F)F)cc1Cl (stereo not drawn) [Ia-151]
80

Query (compound): N#CC1CC1NC(=O)c1ccc(/C=C/C(=O)NC(c2cccc(C(F)(F)F)c2)C(F)(F)F)cc1C(F)(F)F (stereo not drawn) [Ia-140] ; field requested: kill rate in % (efficacy)
100

Bench note: what kill rate in % (efficacy) did Cc1cc(/C=C/C(=O)NC(c2cccc(C(F)(F)F)c2)C(F)(F)F)ccc1C(=O)NCC(F)(F)F (stereo not drawn) [Ia-18] show?
90

# kill rate in % (efficacy) lookup, item O=C(/C=C/c1ccc(C(=O)NCC(F)(F)F)c(Br)c1)NC(c1cccc(C(F)(F)F)c1)C(F)(F)F (stereo not drawn) [Ia-45]
100

Which kill rate in % (efficacy) is listed for CC(CC1CC1)NC(=O)c1ccc(/C=C/C(=O)NC(c2cccc(C(F)(F)F)c2)C(F)(F)F)cc1C(F)(F)F (stereo not drawn) [Ia-148] ?
90

====

assay: logP by HPLC on reverse-phase column (EEC Directive 79/831 Annex V.A8); type: physicochemical; details: reverse-phase C18 HPLC column, pH 2.7, HPLC, C18 reverse phase, 43° C., acidic range pH 2.7, calibration with alkan-2-ones
Readings of chromatographic logP for the listed compounds
Reply with just the number.

Consider the worked cases shown below.
>>> number("CC(C)C(=O)NCc1ccc(/C=C/C(=O)NC(c2cccc(C(F)(F)F)c2)C(F)(F)F)cc1C(F)(F)F (stereo not shown)")
3.78
>>> number("CC(C)(C)OC(=O)NC1CCc2cc(/C=C/C(=O)O)ccc21 (stereo not shown)")
2.47
>>> number("CC(C)(C)OC(=O)c1ccc(C=O)c(O)c1 [tert-Butyl 4-formyl-3-hydroxybenzoate]")
3.11

Then this compound:
Reported chromatographic logP, compound O=C(/C=C/c1cccc(NC(=O)c2cccnc2Cl)c1)NC(c1cccc(C(F)(F)F)c1)C(F)(F)F (stereo not shown) : ____
3.39

====

assay: logP by HPLC on reverse-phase column (EEC Directive 79/831 Annex V.A8); format: physicochemical; conditions: reverse-phase C18 HPLC column, pH 2.7, HPLC, C18 reverse phase, 43° C., acidic range pH 2.7, calibration with alkan-2-ones
Returns one of label 1 or label 0; label 1 when chromatographic logP is >= 3.

Completed entries (count: 4):
>>> class_assignment("O=C(Nc1ccccn1)c1ccc(Br)cc1C(F)(F)F")
"label 0"
>>> class_assignment("O=C(O)/C=C/c1ccc(C(=O)NC2CC2)c(C(F)(F)F)c1")
"label 0"
>>> class_assignment("Cc1cc(/C=C/C(=O)NC(c2cccc(C(F)(F)F)c2)C(F)(F)F)ccc1C(=O)O (centres unmarked)")
"label 1"
>>> class_assignment("O=C(/C=C/c1ccc(C(=O)O)c(C(F)(F)F)c1)NC(c1cccc(C(F)(F)F)c1)C(F)(F)F (centres unmarked)")
"label 1"

Now for a further compound.
Tell me whether chromatographic logP is at least 3 here: NCc1ccc(/C=C/C(=O)NC(c2cccc(C(F)(F)F)c2)C(F)(F)F)cc1C(F)(F)F (centres unmarked)
label 0

====

test: logP by HPLC on reverse-phase column (EEC Directive 79/831 Annex V.A8); type: physicochemical; settings: reverse-phase C18 HPLC column, pH 2.7, HPLC, C18 reverse phase, 43° C., acidic range pH 2.7, calibration with alkan-2-ones
chromatographic logP reference
API doc: respond with a numeric literal and nothing else, no unit.

>>> number("O=C(/C=C/c1ccc(C(=O)NC2CS(=O)(=O)C2)c(Cl)c1)NC(c1cccc(C(F)(F)F)c1)C(F)(F)F (stereo not drawn)")
2.93
>>> number("O=C(NCc1ccccc1)c1ccc(Br)cc1C(F)(F)F")
2.89
>>> number("CC(CF)NC(=O)c1ccc(/C=C/C(=O)NC(c2cccc(C(F)(F)F)c2)C(F)(F)F)cc1C(F)(F)F (stereo not drawn)")
3.37
>>> number("CC(C)(C)OC(=O)NC1CCc2cc(/C=C/C(=O)NC(c3cccc(C(F)(F)F)c3)C(F)(F)F)ccc21 (stereo not drawn)")
4.44
>>> number("Cc1cc(Br)ccc1C(=O)NCc1ccccn1")
1.4

Consider the compound NCc1ccc(Br)cc1C(F)(F)F and give its measured chromatographic logP.
0.92

chromatographic logP for O=C(NCc1ccccn1)c1ccc(Br)cc1C(F)(F)F ?
1.56

====

molecules and their reported efficacy in %
system: mustard beetle (Phaedon cochleariae); assay: Phaedon test (PHAECO spray treatment), Example 16; type: in vivo; details: application rate 500 g/ha, china cabbage leaf discs sprayed, after the desired time
Give your result in % as a bare value.

>>> number("Cc1cc(/C=C/C(=O)NC(c2cccc(C(F)(F)F)c2)C(F)(F)F)ccc1C(=O)O (stereo not drawn)")
83

Record request: efficacy in % value, item O=C(/C=C/c1ccc(NC(=O)C2CC2)cc1)NC(c1cc(Cl)cc(Cl)c1)C(F)(F)F (stereo not drawn)
83

Look up efficacy in % for this molecule: N#Cc1ccc2[nH]c(C(=O)NC(c3cc(Cl)cc(C(F)(F)F)c3)C(F)(F)F)cc2c1 (stereo not drawn)
83

Entry O=C(/C=C/c1ccc(C(=O)NC2CC2)c(C(F)(F)F)c1)NC(c1cncc(C(F)(F)F)c1)C(F)(F)F (stereo not drawn) : reported efficacy in % = ?
83

May I ask what efficacy in % has been recorded for O=C(NC(c1cccc(C(F)(F)F)c1)C(F)(F)F)c1cc2cc(SC(F)(F)F)ccc2o1 (stereo not drawn) ?
83

====

tested on: Lucilia cuprina larvae; assay: Lucilia cuprina test (LUCICU), Example 3; assay type: in vivo; details: application rate 20 ppm, treated horsemeat, after 2 days
measured-parameter: kill rate in % (efficacy) (%)
Provide the reading as a plain figure in %.

>>> number("O=C(/C=C/c1ccc(C(=O)NCc2ccccn2)c(Br)c1)NC(c1cccc(C(F)(F)F)c1)C(F)(F)F (stereo not shown)")
90
>>> number("O=C(/C=C/c1ccc(C(=O)NC2CC2)c(Cl)c1)NC(c1cccc(C(F)(F)F)c1)C(F)(F)F (stereo not shown)")
100
>>> number("CC(NC(=O)c1ccc(/C=C/C(=O)NC(c2cccc(C(F)(F)F)c2)C(F)(F)F)cc1C(F)(F)F)C(F)(F)F (stereo not shown)")
100
>>> number("O=C(/C=C/c1ccc(C(=O)NC2CC2)c(C(F)(F)F)c1)NC(c1cc(Cl)cc(Cl)c1)C(F)(F)F (stereo not shown)")
80
>>> number("O=C(/C=C/c1ccc(C(=O)NCC(F)(F)F)c(Br)c1)NC(c1cccc(C(F)(F)F)c1)C(F)(F)F (stereo not shown)")
100
>>> number("CN(C(=O)c1ccc(/C=C/C(=O)NC(c2cccc(C(F)(F)F)c2)C(F)(F)F)cc1C(F)(F)F)C1CC1 (stereo not shown)")
90

# context switch: different compound, same kill rate in % (efficacy)
What kill rate in % (efficacy) appears in the records for this compound with Lucilia cuprina larvae? O=C(/C=C/c1ccc(C(=O)NC2CC2)c(C(F)(F)F)c1)NC(c1cc(Cl)cc(C(F)(F)F)c1)C(F)(F)F (stereo not shown)
90
